The reader will find reported Ki values listed item by item below.
# TARGET_OR_SYSTEM: human duodenal elastase after stimulation with cholecystokinine (E1)
# TEST_NAME: Inhibition constants (Ki) with human duodenal elastase and chromogenic substrates
# Type: biochemical
# TEST_SETTINGS: Table 2, substrate Suc-(Ala)4-NAn, read-out: Ki, Suc-(Ala)4-NAn, E1
Starred links: 1 amine or outer side, 2 acyl side, 3 side chain; linkers in the order of their positions; H or OH if unused. Residues, ends and D or L forms follow the SMILES beside them. Suc = O=C(CCC(=O)[*:2])[*:1]
MEASUREMENT_TYPE: Ki (µM)

>>> value_observed("CCNC(=O)[C@@H]1CCCN1C(=O)[C@H](C)NC(=O)[C@H](C)NC(=O)CCC(=O)O [Suc--Ala--Ala--Pro--NH--Et] (Suc-Ala-Ala-Pro-NHEt)")
14
>>> value_observed("CCCNC(=O)[C@H](C)NC(=O)[C@H](C)NC(=O)[C@H](C)NC(=O)CCCC(=O)O")
11
>>> value_observed("CCNC(=O)[C@H](C)NC(=O)[C@H](C)NC(=O)[C@H](C)NC(=O)CCC(=O)O")
76

###

The reader will find reported Ki values listed item by item below.
# TARGET_OR_SYSTEM: human duodenal elastase after stimulation with cholecystokinine (E1)
# TEST_NAME: Inhibition constants (Ki) with human duodenal elastase and chromogenic substrates
# Format: biochemical
# TEST_SETTINGS: Table 2, substrate Glt-(Ala)4-NAn, read-out: Ki, Glt-(Ala)4-NAn, E1
Starred links: 1 amine or outer side, 2 acyl side, 3 side chain; linkers in the order of their positions; H or OH if unused. Residues, ends and D or L forms follow the SMILES beside them. Glutaryl = O=C(CCCC(=O)[*:2])[*:1]; Suc = O=C(CCC(=O)[*:2])[*:1]
MEASUREMENT_TYPE: Ki (µM)

>>> value_observed("CCNC(=O)[C@@H]1CCCN1C(=O)[C@H](C)NC(=O)[C@H](C)NC(=O)CCCC(=O)O [Glt--Ala--Ala--Pro--NH--Et] (Glutaryl-Ala-Ala-Pro-NHEt)")
12
>>> value_observed("CCNC(=O)[C@H](C)NC(=O)[C@H](C)NC(=O)[C@H](C)NC(=O)CCCC(=O)O")
19
>>> value_observed("CCNC(=O)[C@@H]1CCCN1C(=O)[C@H](C)NC(=O)[C@H](C)NC(=O)CCC(=O)O [Suc--Ala--Ala--Pro--NH--Et] (Suc-Ala-Ala-Pro-NHEt)")
19
>>> value_observed("CCCNC(=O)[C@H](C)NC(=O)[C@H](C)NC(=O)[C@H](C)NC(=O)CCCC(=O)O")
7.2
>>> value_observed("CCNC(=O)[C@H](C)NC(=O)[C@H](C)NC(=O)[C@H](C)NC(=O)CCC(=O)O")
89
>>> value_observed("CCNC(=O)[C@H](C)NC(=O)[C@H](C)NC(=O)[C@H](C)NC(=O)C=CC(=O)O")
73
>>> value_observed("CCNC(=O)[C@H](C)NC(=O)[C@H](C)NC(=O)[C@H](C)NC(C)=O [Ac--(Ala)3 --NH--Et, reference compound]")
123
>>> value_observed("CCCNC(=O)[C@H](C)NC(=O)[C@H](C)NC(=O)[C@H](C)NC(=O)CCC(=O)O")
21

###

# TARGET_OR_SYSTEM: lyophilized human pancreated fluid obtained by cannulation of the pancreatic duct outlet (E2)
# TEST_NAME: Inhibition constants (Ki) with human pancreatic fluid elastase and chromogenic substrates
# Type: biochemical
# TEST_SETTINGS: Table 2, substrate Suc-(Ala)4-NAn, read-out: Ki, Suc-(Ala)4-NAn, E2
pKi: −log10 of the molar value.
The reader will find reported pKi values listed item by item below.
MEASUREMENT_TYPE: pKi

>>> value_observed("CCNC(=O)[C@H](C)NC(=O)[C@H](C)NC(=O)[C@H](C)NC(=O)CCCC(=O)O")
5.13
>>> value_observed("CCNC(=O)[C@H](C)NC(=O)[C@H](C)NC(=O)[C@H](C)NC(=O)CCC(=O)O")
4.54
>>> value_observed("CCNC(=O)[C@H](C)NC(=O)[C@H](C)NC(=O)[C@H](C)NC(C)=O [Ac--(Ala)3 --NH--Et, reference compound]")
4.16
>>> value_observed("CCCNC(=O)[C@H](C)NC(=O)[C@H](C)NC(=O)[C@H](C)NC(=O)CCC(=O)O")
4.89

###

# TARGET_OR_SYSTEM: swine's pancreatic elastase (E3) (Sus scrofa, UniProt P00772)
# Sequence (P00772 27-266): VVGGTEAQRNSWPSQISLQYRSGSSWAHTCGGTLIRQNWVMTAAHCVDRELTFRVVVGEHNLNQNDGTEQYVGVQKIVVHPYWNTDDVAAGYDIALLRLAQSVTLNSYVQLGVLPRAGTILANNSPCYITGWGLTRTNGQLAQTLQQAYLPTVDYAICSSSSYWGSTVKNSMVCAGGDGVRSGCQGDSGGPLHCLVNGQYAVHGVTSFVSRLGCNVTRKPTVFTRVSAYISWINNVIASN
# TEST_NAME: Inhibition constants (Ki) with pancreatic elastase and chromogenic p-nitroanilide substrates
# Type: biochemical
# TEST_SETTINGS: Table 1; pancreatic elastase; substrate Suc-(Ala)4-NAn; read-out: Ki, substrate Suc-(Ala)4-NAn
# Description: The earlier work also led to the surprising discovery that the carboxy group in the N-terminal part of the inhibitor as compared with the hydrophobic residue, such as an acetyl, substantially enhances inhibition capacity in the same manner as it enhances the constants of elastolytic hydrolysis of substrates of this type. […]
Starred links: 1 amine or outer side, 2 acyl side, 3 side chain; linkers in the order of their positions; H or OH if unused. Residues, ends and D or L forms follow the SMILES beside them. Glutaryl = O=C(CCCC(=O)[*:2])[*:1]; Suc = O=C(CCC(=O)[*:2])[*:1]
Mark Met only when Ki stays strictly below 9 µM. Values equal to the cut-off are Not met.

>>> cat("CCNC(=O)[C@@H]1CCCN1C(=O)[C@H](C)NC(=O)[C@H](C)NC(=O)CCCC(=O)O [Glt--Ala--Ala--Pro--NH--Et] (Glutaryl-Ala-Ala-Pro-NHEt)")
"Met"
>>> cat("CCNC(=O)[C@@H]1CCCN1C(=O)[C@H](C)NC(=O)[C@H](C)NC(=O)CCC(=O)O [Suc--Ala--Ala--Pro--NH--Et] (Suc-Ala-Ala-Pro-NHEt)")
"Met"
>>> cat("CCNC(=O)[C@H](C)NC(=O)[C@H](C)NC(=O)[C@H](C)NC(=O)C=CC(=O)O")
"Not met"
>>> cat("CCNC(=O)[C@H](C)NC(=O)[C@H](C)NC(=O)[C@H](C)NC(=O)CCC(=O)O")
"Not met"
>>> cat("CCCNC(=O)[C@H](C)NC(=O)[C@H](C)NC(=O)[C@H](C)NC(=O)CCCC(=O)O")
"Met"

###

The reader will find reported Ki values listed item by item below.
# TARGET_OR_SYSTEM: human duodenal elastase after stimulation with cholecystokinine (E1)
# TEST_NAME: Inhibition constants (Ki) with human duodenal elastase and chromogenic substrates
# Assay type: biochemical
# TEST_SETTINGS: Table 2, substrate Suc-(Ala)4-NAn, read-out: Ki, Suc-(Ala)4-NAn, E1
Starred links: 1 amine or outer side, 2 acyl side, 3 side chain; linkers in the order of their positions; H or OH if unused. Residues, ends and D or L forms follow the SMILES beside them. Glutaryl = O=C(CCCC(=O)[*:2])[*:1]
MEASUREMENT_TYPE: Ki (µM)

>>> value_observed("CCNC(=O)[C@H](C)NC(=O)[C@H](C)NC(=O)[C@H](C)NC(=O)C=CC(=O)O [Mal--(Ala)3 --NH--Et]")
87
>>> value_observed("CCCNC(=O)[C@H](C)NC(=O)[C@H](C)NC(=O)[C@H](C)NC(=O)CCC(=O)O [Suc--(Ala)3 --NH--Pr]")
12
>>> value_observed("CCNC(=O)[C@H](C)NC(=O)[C@H](C)NC(=O)[C@H](C)NC(C)=O [Ac--(Ala)3 --NH--Et, reference compound]")
238
>>> value_observed("CCNC(=O)[C@@H]1CCCN1C(=O)[C@H](C)NC(=O)[C@H](C)NC(=O)CCCC(=O)O [Glt--Ala--Ala--Pro--NH--Et] (Glutaryl-Ala-Ala-Pro-NHEt)")
10
>>> value_observed("CCNC(=O)[C@H](C)NC(=O)[C@H](C)NC(=O)[C@H](C)NC(=O)CCCC(=O)O [Glt--(Ala)3 --NH--Et]")
15

###

# TARGET_OR_SYSTEM: swine's pancreatic elastase (E3) (Sus scrofa)
# TEST_NAME: Inhibition constants (Ki) with pancreatic elastase and chromogenic p-nitroanilide substrates
# Type: biochemical
# TEST_SETTINGS: Table 2; swine's pancreatic elastase (E3); substrate Suc-(Ala)4-NAn; read-out: Ki, Suc-(Ala)4-NAn, E3
MEASUREMENT_TYPE: Ki (µM)

>>> value_observed("CCNC(=O)[C@H](C)NC(=O)[C@H](C)NC(=O)[C@H](C)NC(=O)CCC(=O)O [Suc--(Ala)3 --NH--Et]")
20
